- Tested on: HCT-15 colon
- PROTOCOL DETAILS: NCI-60 one-dose screen, 48 h (100 = growth as untreated, 0 = no growth, -100 = all killed)
- DETAILS: 10 µM unless noted
The panel holds about 83,000 compounds, 20% with a hit somewhere; the sample as a whole holds those more often.
Measured growth, listed per entry.

| COMPOUND | growth / % |
| --- | --- |
| Clc1ccc(C2CC(c3cccc(Nc4ccncc4)c3)=NN2c2cc(Cl)cc(Cl)c2)cc1 (stereo not drawn) | -25.2 |
| COc1cc2nc(-c3ccc(C(F)(F)F)cc3)cc(OCCCN3CCC(O)CC3)c2cc1OC | 9.78 |
| O=c1[nH]nc(-c2ccc(Cl)cc2)cc1Cc1cccc([N+](=O)[O-])c1 | 105 |
| O=C(CN1CCOCC1)Nc1ccc2ncnc(Nc3ccc(Oc4cccc(C(F)(F)F)c4)c(Cl)c3)c2c1 | 52.2 |
| CC1(C)CC[C@]2(C(=O)NCC#CCN3CCOCC3)CC[C@]3(C)C(=CC[C@@H]4[C@@]5(C)Cc6c([nH]c7ccccc67)C(C)(C)[C@@H]5CC[C@]43C)[C@@H]2C1 | 93.5 |
| CC(=O)c1c(C)[nH]c(-c2nc3ccc(N4CCN(C)CC4)cc3[nH]2)c1-c1ccccc1 | 14.9 |
| Fc1ccccc1CSc1ncnc2nc[nH]c12 | 114 |
| COc1ccc2c(Nc3ccc(NS(C)(=O)=O)cc3)c3ccccc3nc2c1 | 1.84 |
| CCN(CC)CCSCCCNc1c(C)cnc2cc(Cl)ccc12 | 76.7 |
| NS(=O)(=O)c1cccc(NC(=O)C(=O)C2C(=O)Nc3ccccc32)c1 (stereo not drawn) | 99.8 |
| CC(=O)[C@@H]1CC[C@]2(C(=O)n3ccnc3)CC[C@]3(C)[C@H](CC[C@@H]4[C@@]5(C)Cc6c([nH]c7ccccc67)C(C)(C)[C@@H]5CC[C@]43C)[C@@H]12 | 87.7 |
| COc1ccc(Cn2nc(-c3cc(OC)c(OC)c(OC)c3)c3c2CCc2cnoc2-3)cc1OC | 53.1 |
| Cn1c(COC(=O)NCCn2ccnc2)nc2c(N3CCOCC3)nc(-c3ccccc3)nc21 | -51.3 |
| Cn1c(=O)c2[nH]c(CCCc3nc4c([nH]3)c(=O)n(C)c(=O)n4C)nc2n(C)c1=O | 115 |
| Nc1c(Cl)cc([N+](=O)[O-])cc1Br | 103 |
| COc1ccccc1C(C[N+](=O)[O-])c1c(-c2ccccc2)[nH]c2cc(C)ccc12 (stereo not drawn) | 44 |
| CC1=CC[C@@H]2CC[C@]3(C)[C@H](CC[C@@H]4[C@@]5(C)CCCNC(C)(C)[C@@H]5CC[C@]43C)[C@H]2[C@@H]1C | -57.8 |
| COc1ccc(Cl)cc1NC(=O)c1c(NC(=O)C(F)(F)C(F)(F)F)sc2c1CCCCC2 | 14.9 |

====

- Test system: NCI-H522 lung
- PROTOCOL DETAILS: NCI-60 one-dose screen, 48 h (100 = growth as untreated, 0 = no growth, -100 = all killed)
- DETAILS: 10 µM unless noted
This is part of a sample that, as a whole, favours compounds with a hit. Of some 83,000 tested, about 20% had one in any assay.
ENDPOINT LABEL: growth (%)

| COMPOUND | ASSAYED TARGET | ENDPOINT LABEL | NUMERIC VALUE |
| --- | --- | --- | --- |
| Cc1c(C2=CCCCC2)c2ccccn2c1C(=O)c1cccc(S(=O)(=O)N2CCOCC2)c1 | NCI-H522 lung | growth | 68.1 |
| O=C1Nc2ccccc2/C1=N/c1nc(-c2ccc(Cl)cc2)cs1 | NCI-H522 lung | growth | 50.1 |
| Cc1cc(Nc2cccc(C(F)(F)F)c2)n2c(nc3ccccc32)c1C#N | NCI-H522 lung | growth | 20.7 |
| CC(=O)N1c2ccccc2NC2=C(C(=O)N(C)C2(C)C)C1C (stereo not given) | NCI-H522 lung | growth | 18.6 |
| COc1cc2c(cc1[N+](=O)[O-])-c1ccc([N+](=O)[O-])cc1/C2=N/NC(N)=S | NCI-H522 lung | growth | 35.5 |
| CCn1cc(C2NC(=O)c3ccccc3N2)c2cccc(C)c21 (stereo not given) | NCI-H522 lung | growth | -39.8 |
| CCN(CC)CCCCCCNc1cc(OC)cc2cccnc12 | NCI-H522 lung | growth | 5.26 |
| CC1=NNC(=O)C1CCC(=O)N/N=C(\C)c1ccc2ccccc2c1 (stereo not given) | NCI-H522 lung | growth | 96.1 |
| O=C(N/N=C/c1cccc(O)c1)c1ccccc1Nc1cccc(C(F)(F)F)c1 | NCI-H522 lung | growth | 90.3 |
| O=C(CCN1CCCC1)Nc1ccc2c(NCc3ccc(F)cc3)c3ccccc3nc2c1 | NCI-H522 lung | growth | -50.1 |

====

- Test system: A549/ATCC NSCLC
- PROTOCOL DETAILS: NCI-60 one-dose screen, 48 h
- DETAILS: 10 µM unless noted
This is part of a sample that, as a whole, favours compounds with a hit. Of some 83,000 tested, about 20% had one in any assay. Activity calls are given as the source filed them. How the source made its calls: active means growth percent below 10; inactive means the rest.
Outcomes: true (1) for active, false (0) for inactive

| COMPOUND | GROUP LABEL |
| --- | --- |
| Fc1ccc(-n2cc(COc3ncnc4sc5c(c34)CCCC5)nn2)cc1Cl | false (0) |
| CCCCCCCC(=O)Nc1nc2[nH]c(CN3CCN(Cc4cccc(I)c4)CC3)c(CN3CCN(Cc4cccc(I)c4)CC3)c2c(=O)[nH]1 | true (1) |
| CCCCCCCCOc1ccc(/C=N/Nc2cc(C)nc3ccc(Cl)cc23)cc1 | true (1) |
| COc1cc2nc(-c3ccc(-c4nn[nH]n4)cc3)[nH]c(=O)c2cc1OC | false (0) |
| COc1cc(C2CC(c3cccc(Nc4ccncc4)c3)=NN2c2ccccc2)cc(OC)c1OC (stereo not given) | false (0) |
| CCCCCCCCCCCCCCCC(=O)OC[C@@]1(O)C[C@@]23CC[C@@H]4C(C)(C)CCC[C@@]4(C)[C@@H]2CC[C@H]1C3 | false (0) |
| NC(=O)CN1CCN(c2ccccc2Cl)CC1 | false (0) |
| COc1cc(OC)cc(C2C3=C(COC3=O)Nc3cc(OC)ccc32)c1 (stereo not given) | false (0) |
| CC(=O)NCCCS(=O)(=O)O | false (0) |
| COc1ccc(Nc2nc(N)nc3c2CCc2occc2-3)cc1 | false (0) |

====

- System: MCF7 breast
- PROTOCOL DETAILS: NCI-60 one-dose screen, 48 h
- DETAILS: 10 µM unless noted
About 83,000 compounds went through this panel and 20% of them were active in at least one assay; those are over-represented in the sample as a whole. Activity calls are given as the source filed them. The calls were made as follows: active = growth percent below 10; inactive = the rest.
Outcomes: Y (active), N (inactive)

| COMPOUND | ASSAYED TARGET | GROUP LABEL |
| --- | --- | --- |
| Cc1[nH]n(-c2cccc(Cl)c2)c(=O)c1/C=C1\C=Nc2ccc(Br)cc21 | MCF7 breast | N |
| CC1(C)CN(Cc2ccccc2)CCN1Cc1ccccc1 | MCF7 breast | N |
| COc1cc(CCNc2nc3cc(N)cc(N)c3nc2-c2ccccc2)cc(OC)c1 | MCF7 breast | Y |
| COc1ccc(-c2nc(N/N=C/c3c[nH]c4ccccc34)nc(N3CCOCC3)c2C#N)cc1 | MCF7 breast | N |
| O=C(Nc1nc2ccc(C(=O)N3CCN(c4ccc(Cl)c(Cl)c4)CC3)cc2s1)c1ccc(NCCc2ccccc2)c([N+](=O)[O-])c1 | MCF7 breast | N |
| CCOC(=O)c1c(C)nc2c(c1N)C(=O)C(=O)N2Cc1ccc(C(F)(F)F)cc1 | MCF7 breast | N |
| O=C(CCN1CCCC1)Nc1ccc2c(NCc3ccc(F)cc3)c3ccccc3nc2c1 | MCF7 breast | Y |
| COc1cc2c(cc1[N+](=O)[O-])-c1ccc([N+](=O)[O-])cc1/C2=N/NC(N)=S | MCF7 breast | N |
| OC1(c2ccc(Cl)c(C(F)(F)F)c2)CCN(CCCC(c2ccc(F)cc2)c2ccc(F)cc2)CC1 | MCF7 breast | Y |
| C=C(C)[C@@H]1CC[C@]2(C=O)CC[C@]3(C)[C@H](CC[C@@H]4[C@@]5(C)CCCNC(C)(C)[C@@H]5CC[C@]43C)[C@@H]12 | MCF7 breast | N |
| COc1cnccc1-c1nc2ccc3[nH]ncc3c2c2c1CCCC2 | MCF7 breast | N |
| COc1cc(C2NC(c3cc(OC)c(OC)c(OC)c3)C(C#N)(C#N)C2(C#N)C#N)cc(OC)c1OC (stereo not drawn) | MCF7 breast | N |
| O=C(Cc1ccc(/C=C/C(=O)c2ncc[nH]2)cc1)Nc1ccc(C(F)(F)F)cc1 | MCF7 breast | N |
| Cc1ccc(-c2c(Br)c(OC(=O)CO[C@@H]3C[C@H](C)CC[C@H]3C(C)C)c(-c3ccc(C)cc3C)c(Br)c2OC(=O)CO[C@H]2C[C@@H](C)CC[C@@H]2C(C)C)c(C)c1 | MCF7 breast | N |
| CC(C)(C)OC(=O)N1C/C(=C\c2ccoc2)C(=O)/C(=C/c2ccoc2)C1 | MCF7 breast | N |
| O=C(O)CCCCCCCCCCCCCCC(=O)O | MCF7 breast | N |
| CCCCCCCCCCN=C(N)N=C(N)N | MCF7 breast | N |
| CC(=O)OCC(=O)[C@@]1(O)CC[C@H]2[C@@H]3CC(=C(Br)Br)C4=CC(=O)CC[C@]4(C)[C@H]3C(=O)C[C@@]21C | MCF7 breast | N |
